Target: Chromo domain-containing protein 1 (Saccharomyces cerevisiae (strain ATCC 204508 / S288c) (Baker's yeast)) (UniProt P32657)
Sequence (P32657 whole entry, the tested form may be a part): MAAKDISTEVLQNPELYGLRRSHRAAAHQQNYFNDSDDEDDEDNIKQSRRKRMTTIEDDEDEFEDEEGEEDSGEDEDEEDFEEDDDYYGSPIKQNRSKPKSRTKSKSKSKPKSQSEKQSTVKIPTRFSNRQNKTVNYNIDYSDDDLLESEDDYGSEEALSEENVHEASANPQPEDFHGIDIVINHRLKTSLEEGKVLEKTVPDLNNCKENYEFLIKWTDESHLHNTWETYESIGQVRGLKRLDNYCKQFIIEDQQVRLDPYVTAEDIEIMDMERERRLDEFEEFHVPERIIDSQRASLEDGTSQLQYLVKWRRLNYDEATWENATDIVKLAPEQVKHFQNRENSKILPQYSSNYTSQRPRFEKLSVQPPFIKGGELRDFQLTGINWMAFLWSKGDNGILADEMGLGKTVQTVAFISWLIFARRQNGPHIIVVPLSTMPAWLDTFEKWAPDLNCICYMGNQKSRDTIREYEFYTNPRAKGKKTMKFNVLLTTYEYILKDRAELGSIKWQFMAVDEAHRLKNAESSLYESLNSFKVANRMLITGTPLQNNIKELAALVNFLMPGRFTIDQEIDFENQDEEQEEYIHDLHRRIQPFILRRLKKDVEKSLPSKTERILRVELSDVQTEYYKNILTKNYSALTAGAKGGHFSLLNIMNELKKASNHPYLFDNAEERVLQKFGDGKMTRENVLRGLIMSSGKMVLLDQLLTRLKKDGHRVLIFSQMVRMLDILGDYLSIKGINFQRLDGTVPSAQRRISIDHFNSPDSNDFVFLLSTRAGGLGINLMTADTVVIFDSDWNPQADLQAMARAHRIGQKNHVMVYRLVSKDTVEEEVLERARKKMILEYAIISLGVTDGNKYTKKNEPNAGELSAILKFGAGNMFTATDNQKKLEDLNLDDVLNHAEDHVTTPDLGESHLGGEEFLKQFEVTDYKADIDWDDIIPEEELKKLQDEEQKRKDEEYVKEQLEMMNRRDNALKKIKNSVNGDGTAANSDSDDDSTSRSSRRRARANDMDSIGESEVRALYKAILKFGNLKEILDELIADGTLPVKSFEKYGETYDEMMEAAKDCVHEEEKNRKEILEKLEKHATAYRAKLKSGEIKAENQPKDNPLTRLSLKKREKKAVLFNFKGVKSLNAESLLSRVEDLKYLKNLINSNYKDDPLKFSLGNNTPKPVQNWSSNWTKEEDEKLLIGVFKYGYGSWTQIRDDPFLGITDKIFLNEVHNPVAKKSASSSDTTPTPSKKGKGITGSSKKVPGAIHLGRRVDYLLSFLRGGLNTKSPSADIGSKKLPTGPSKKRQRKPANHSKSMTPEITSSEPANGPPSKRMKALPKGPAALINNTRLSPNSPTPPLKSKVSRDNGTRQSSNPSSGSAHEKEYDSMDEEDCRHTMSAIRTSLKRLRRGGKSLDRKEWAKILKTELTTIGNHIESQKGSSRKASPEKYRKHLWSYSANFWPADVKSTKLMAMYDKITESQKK
Assay: ScCHD-1 Enzyme Inhibition Assay; also: in the data most compounds retested in dose-response had high values
Assay type: functional
Set-up: scale not given: direction of the effect not stated beside the values
Details: 30 µM
Measured Parameter: Percent Effect (%)
I only need the number, in %, no unit after it.

## Task Which Percent Effect value belongs to Cc1cnn(CC2CCCN2C(=O)c2cc(C)no2)c1 (stereo not drawn) ?
## Result 10.5

## Task Which Percent Effect value belongs to Cn1ccnc1CN1CCCC(Cc2ccccn2)C1 (stereo not drawn) ?
## Result -20.2

## Task Which Percent Effect value belongs to CCc1nc(CN2CCCC(NCc3ccc(C(N)=O)cc3)C2)no1 (stereo not drawn) ?
## Result -2.88

## Task Which Percent Effect value belongs to CC(=O)N1CCc2c(nc(-c3ccccn3)nc2N(C)CC(O)CO)C1 (stereo not drawn) ?
## Result -1.31

## Task Which Percent Effect value belongs to CC(NC(=O)NCCCn1ccnc1)c1ccc2c(c1)OCCCO2 (stereo not drawn) ?
## Result 2.18

## Task Which Percent Effect value belongs to `COc1ccc(S(N)(=O)=O)cc1C(=O)N(C)Cc1cc(C)on1` ?
## Result -7.04

More entries:
## Task Which Percent Effect value belongs to Fc1ccccc1Cc1noc(CN2CCCC(CN3CCCC3)C2)n1 (stereo not drawn) ?
## Result -3.21

## Task Which Percent Effect value belongs to `COc1cc(NC(=O)Cn2ccc3sc(C)cc3c2=O)cc(OC)c1` ?
## Result -0.379

---

Biological target: Tyrosyl-tRNA synthetase, putative (Trypanosoma cruzi (strain CL Brener)) (UniProt Q4DSP6)
Sequence (Q4DSP6 as listed by the source): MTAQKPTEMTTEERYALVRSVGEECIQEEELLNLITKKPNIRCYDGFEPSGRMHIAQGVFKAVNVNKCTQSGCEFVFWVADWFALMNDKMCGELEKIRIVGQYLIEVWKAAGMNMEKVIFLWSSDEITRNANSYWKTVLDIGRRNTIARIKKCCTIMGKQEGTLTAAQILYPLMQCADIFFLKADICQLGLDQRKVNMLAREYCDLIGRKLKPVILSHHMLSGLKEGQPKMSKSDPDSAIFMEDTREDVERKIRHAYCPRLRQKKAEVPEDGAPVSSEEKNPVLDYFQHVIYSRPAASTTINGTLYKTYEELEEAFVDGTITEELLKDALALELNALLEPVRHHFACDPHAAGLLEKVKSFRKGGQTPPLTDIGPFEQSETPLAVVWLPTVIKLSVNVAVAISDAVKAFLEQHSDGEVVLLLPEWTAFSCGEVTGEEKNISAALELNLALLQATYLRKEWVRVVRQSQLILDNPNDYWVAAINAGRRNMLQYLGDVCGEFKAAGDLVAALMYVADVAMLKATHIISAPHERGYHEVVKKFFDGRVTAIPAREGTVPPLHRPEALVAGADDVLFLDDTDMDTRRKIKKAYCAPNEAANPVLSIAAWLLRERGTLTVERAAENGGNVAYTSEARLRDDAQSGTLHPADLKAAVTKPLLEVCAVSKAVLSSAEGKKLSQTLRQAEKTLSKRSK
Test: Trypanosoma cruzi tyrosyl tRNA synthetase (TcYRS) _High Tyrosine SOP; also: in the data most compounds retested in dose-response had high values
Format: functional
Design: scale not given: direction of the effect not stated beside the values
Details: 30 µM
This section presents compounds with their documented Percent Effect values.
I only need the number, in %, no unit after it.

# annotated cases, reported Percent Effect shown
## Task Which Percent Effect value belongs to `Cc1cc(C(=O)N2CC[C@@H]3CN(S(C)(=O)=O)CCO[C@@H]3C2)c(C)o1` ?
## Result 4.32

## Task Which Percent Effect value belongs to `CC(C)Cc1nc(OCC(N)=O)c(C#N)c2c1CCC2` ?
## Result 3.72

## Task Which Percent Effect value belongs to `Cc1nc(NCCc2ccc(Cl)cc2)cc(C(=O)N2CCCCC2)n1` ?
## Result 0

## Task Which Percent Effect value belongs to O=C(NC1CC(=O)N(Cc2cccc(F)c2)C1)c1ccncc1 (stereo not drawn) ?
## Result 1.59

## Task Which Percent Effect value belongs to COCc1cccc(C(=O)N2CCCCC2c2nccs2)c1 (stereo not drawn) ?
## Result 3.45

## Task Which Percent Effect value belongs to Cc1cc(C)n(CC2CN(CC(=O)Nc3c(C)n[nH]c3C)CCO2)n1 (stereo not drawn) ?
## Result 6.8

## Task Which Percent Effect value belongs to `CC(=O)c1cccc(NC(=O)COc2c(C)n(C)ccc2=O)c1` ?
## Result 7.41

## Task Which Percent Effect value belongs to CC1CN(Cc2nccn2C)CCN1c1ccc2nncn2n1 (stereo not drawn) ?
## Result 5.83

More entries:
## Task Which Percent Effect value belongs to Cc1cccc(CN2CCC3(CCN(Cc4ccccn4)C3)C2=O)c1 (stereo not drawn) ?
## Result -0.966

## Task Which Percent Effect value belongs to `Cn1c(C(F)(F)F)nn(CCNC(=O)NCc2ccccc2)c1=O` ?
## Result 4.3

## Task Which Percent Effect value belongs to `Cc1cccc2c1cnn2CCCNC(=O)C(C)C` ?
## Result 5.38

## Task Which Percent Effect value belongs to Cc1ncc(CNC(=O)CCc2cccc(F)c2)c(C2CCCN2C)n1 (stereo not drawn) ?
## Result 2.15

## Task Which Percent Effect value belongs to `Cc1cc(CN2CCN(CCOc3cccc(C#N)c3)CC2)no1` ?
## Result 5.42

---

This section presents compounds with their documented Percent Effect values.
Molecular target: Protein translocase subunit SecA (Escherichia coli (strain K12))
Assay: Assay to Identify E. coli SecA ATPase Inhibitors
Format: functional
Set-up: scale not given: direction of the effect not stated beside the values
Conditions: 30 µM
Results with a measured potency or affinity are listed apart.
I only need the number, in %, no unit after it.

## Task Which Percent Effect value belongs to `Cn1cccc1C(=O)N1CCc2ncc(Cn3cccn3)n2CC1` ?
## Result -5.21

## Task Which Percent Effect value belongs to `Cn1cnnc1S(=O)(=O)C1CCN(S(=O)(=O)C2CC2)CC1` ?
## Result -2.77

## Task Which Percent Effect value belongs to `CC(C)NC(=O)Nc1ccc(CS(=O)(=O)C(C)(C)C)cc1` ?
## Result -3.43

Now consider a different compound.
## Task Which Percent Effect value belongs to CN(Cc1cncnc1)Cc1cn2c(n1)CN(C1CCOC1)CC2 (centres undefined) ?
## Result -2.37

---

Target: AMP-activated protein kinase, AMPK (Homo sapiens) (UniProt P54646+O43741+P54619+Q9UGJ0+Q9Y478+Q13131+Q9UGI9)
Test: AMP-dependent Kinase enzyme assay. An in vitro enzyme assay that detects ADP turnover that is directly proportional to AMPK activity. This uses naive AMPK that is activated during the assay with MK-8722
Assay type: functional
Parameters: scale not given: direction of the effect not stated beside the values
Conditions: 30 µM
Measured Parameter: Percent Effect

# annotated cases, reported Percent Effect shown
## Task Which Percent Effect value belongs to Cc1nc(C)n(C2CCCN(C(=O)Cc3cccnc3)C2)n1 (stereo not drawn) ?
## Result 2.37%

## Task Which Percent Effect value belongs to CCc1ccc(C(=O)N2CCCC(n3cncn3)C2)o1 (stereo not drawn) ?
## Result -1.09%

## Task Which Percent Effect value belongs to O=C(c1cccc(OC2CCCC2)c1)N1CCCC(n2cncn2)C1 (stereo not drawn) ?
## Result 12.1%

## Task Which Percent Effect value belongs to `Cc1ccc(C(=O)NCCS(C)(=O)=O)c(=O)[nH]1` ?
## Result -7.64%

## Task Which Percent Effect value belongs to Cc1csc(N2CCCN(C(=O)C(C(C)C)n3cncn3)CC2)n1 (stereo not drawn) ?
## Result 0.997%

More entries:
## Task Which Percent Effect value belongs to CN(Cc1ccc(F)cc1)CC1(O)CCN(C(=O)c2ccccc2)C1 (stereo not drawn) ?
## Result 9.4%

## Task Which Percent Effect value belongs to `O=C(Cc1ccc2c(c1)OCCO2)NC1CCN(CC(F)F)CC1` ?
## Result 6.85%

## Task Which Percent Effect value belongs to CC(=O)NCCc1ccc(C(=O)N2CCCC2c2cnn(C)c2)cc1 (stereo not drawn) ?
## Result -6.64%

---

Biological target: Chromo domain-containing protein 1 (Saccharomyces cerevisiae (strain ATCC 204508 / S288c) (Baker's yeast))
Assay: ScCHD-1 Enzyme Inhibition Assay; also: in the data most compounds retested in dose-response had high values
Assay type: functional
Parameters: scale not given: direction of the effect not stated beside the values
Settings: 30 µM
This section presents compounds with their documented Percent Effect values.
I only need the number, in %, no unit after it.

## Task Which Percent Effect value belongs to `O=C(NCCc1ccn(-c2ccccc2)n1)N1CCC1` ?
## Result -20.8

## Task Which Percent Effect value belongs to CC(CNC(=O)N1CCN(CC(F)F)CC1)Cc1cccs1 (configuration not stated) ?
## Result -2.29

## Task Which Percent Effect value belongs to CN(CC1CN(Cc2cn3ccsc3n2)CCO1)c1cccnn1 (configuration not stated) ?
## Result -26.4

## Task Which Percent Effect value belongs to O=C(O)C(c1ccc2c(c1)OCO2)N1CCC(C(=O)N2CCCC2)CC1 (configuration not stated) ?
## Result -5.45

## Task Which Percent Effect value belongs to c1cnc(-c2nc(CN3CCOC(Cn4cncn4)C3)cs2)nc1 (configuration not stated) ?
## Result -6.92

## Task Which Percent Effect value belongs to `Cc1cc(C)c(OCC(=O)NS(=O)(=O)c2cccnc2)c(C)c1` ?
## Result -14

Now consider a different compound.
## Task Which Percent Effect value belongs to `Fc1ccccc1CN1C[C@@H](OCc2ccncc2)[C@H]2OCCC[C@H]21` ?
## Result -1.04

---

Target: Chromo domain-containing protein 1 (Saccharomyces cerevisiae (strain ATCC 204508 / S288c) (Baker's yeast)) (UniProt P32657)
Test: ScCHD-1 Enzyme Inhibition Assay; also: in the data most compounds retested in dose-response had high values
Type: functional
Design: scale not given: direction of the effect not stated beside the values
Settings: 30 µM
This section presents compounds with their documented Percent Effect values.
I only need the number, in %, no unit after it.

## Task Which Percent Effect value belongs to CC(C)N(C)CC(=O)N1CCCC(c2ccc(C(=O)O)cc2)C1 (centres undefined) ?
## Result -2.58

## Task Which Percent Effect value belongs to CCOc1ccc(CC(CNC(=O)c2ccoc2)C(N)=O)cc1 (centres undefined) ?
## Result -16.2

## Task Which Percent Effect value belongs to `O=C(NCCNc1cnccn1)N1CCN(Cc2cccnc2)CC1` ?
## Result -33.3

## Task Which Percent Effect value belongs to `CN(Cc1ccsc1)C(=O)c1cccc(NS(C)(=O)=O)c1` ?
## Result -8.96

## Task Which Percent Effect value belongs to CCCc1cc(C(=O)N2CCCC2c2cccnc2)[nH]n1 (centres undefined) ?
## Result -3.7
